Molecular target: XPO1 (Homo sapiens)
Assay: XPO1 occupancy assay in cultured cell lines (biotinylated probe pull-down, Simple Western)
Assay type: cell-based
Parameters: Cells were collected, washed with PBS, and lysed with RIPA Buffer; endogenous in cells; host or cells: MM.1S
Settings: MM.1S cells; SINE compound 1 hour, then 1 nM b-LMB […]; read-out: Avg 50% Occupancy
Property: EC50; scope: individual compounds

>  <COMPOUND>
CC(C)(C)C(=O)NNC(=O)/C=C\n1cnc(-c2cc(C(F)(F)F)cc(C(F)(F)F)c2)n1

>  <EC50 (nM)>
630

$$$$
>  <COMPOUND>
O=C(/C=C\n1cnc(-c2cc(C(F)(F)F)cc(C(F)(F)F)c2)n1)NNc1ccccn1 [Verdinexor, verdinexor]

>  <EC50 (nM)>
40

$$$$

====

Test system: nuclear export of the XPO1 cargo protein Rev-GFP in stably transfected U2OS cells
Assay: Rev-GFP assay (nuclear retention of Rev-GFP)
Type: cell-based
Details: Homo sapiens, 4 h, read-out: Rev-GFP (nM), U2OS cells stably expressing Rev-GFP, 4 hours treatment
QUANTITY KIND: IC50 (nM)

>  <COMPOUND>
CCC(=C/[C@H](C)C/C=C/C(C)=C/[C@@H](C)C(=O)[C@@H](C)[C@H](O)[C@@H](C)C/C(C)=C/C(=O)O)/C=C/[C@@H]1OC(=O)C=C[C@@H]1C [LMB, leptomycin B, reference compound]

>  <MEASURE UNIT>
nM

>  <RECORDED MEASUREMENT>
0.16

$$$$
>  <COMPOUND>
O=C(/C=C\n1cnc(-c2cc(C(F)(F)F)cc(C(F)(F)F)c2)n1)NNc1cnccn1 [Selinexor, selinexor]

>  <MEASURE UNIT>
nM

>  <RECORDED MEASUREMENT>
40

$$$$
>  <COMPOUND>
CCC(C=CC1OC(=O)C=CC1C)=CC(C)CC=CC(C)=CC(C)C(=O)C(C)C(O)C(C)CC(C)=CC(=O)NCCCCCCNC(=O)CCCCC1SCC2NC(=O)NC21 (stereo not drawn) [b-LMB, reference compound]

>  <MEASURE UNIT>
nM

>  <RECORDED MEASUREMENT>
0.11

$$$$

====

Each entry below carries its reported IC50.
Assay: MTT assay of unmodified and biotinylated SINE compounds (cell line not given)
Type: cell-based
Conditions: cell line not named

>  <CHEMICAL STRUCTURE>
O=C1N[C@H]2[C@H](CS[C@H]2CCCCC(=O)Oc2cc(-c3ncn(/C=C\C(=O)N4CC(F)(F)C4)n3)cc(C(F)(F)F)c2)N1

>  <MEASURE UNIT>
nM

>  <IC50>
110

$$$$
>  <CHEMICAL STRUCTURE>
NC(=O)/C(=C/n1cnc(-c2cc(C(F)(F)F)cc(C(F)(F)F)c2)n1)c1cncnc1

>  <MEASURE UNIT>
nM

>  <IC50>
19

$$$$
>  <CHEMICAL STRUCTURE>
O=C(/C=C\n1cnc(-c2cc(C(F)(F)F)cc(C(F)(F)F)c2)n1)N1CC(F)(F)C1

>  <MEASURE UNIT>
nM

>  <IC50>
18

$$$$
>  <CHEMICAL STRUCTURE>
NC(=O)/C(=C/n1cnc(-c2cc(OC(=O)CCCC[C@@H]3SC[C@@H]4NC(=O)N[C@@H]43)cc(C(F)(F)F)c2)n1)c1cncnc1

>  <MEASURE UNIT>
nM

>  <IC50>
280

$$$$

====

Test system: AML3
Experiment: MTT cytotoxicity assay
Type: cell-based
Conditions: read-out: Selinexor IC50 (μM), MTT

>  <COMPOUND>
O=C(/C=C\n1cnc(-c2cc(C(F)(F)F)cc(C(F)(F)F)c2)n1)NNc1cnccn1 [Selinexor, selinexor]

>  <MEASURE UNIT>
µM

>  <IC50>
0.27

$$$$

====

Molecular target: XPO1 (Homo sapiens, UniProt O14980)
Sequence (O14980 whole entry): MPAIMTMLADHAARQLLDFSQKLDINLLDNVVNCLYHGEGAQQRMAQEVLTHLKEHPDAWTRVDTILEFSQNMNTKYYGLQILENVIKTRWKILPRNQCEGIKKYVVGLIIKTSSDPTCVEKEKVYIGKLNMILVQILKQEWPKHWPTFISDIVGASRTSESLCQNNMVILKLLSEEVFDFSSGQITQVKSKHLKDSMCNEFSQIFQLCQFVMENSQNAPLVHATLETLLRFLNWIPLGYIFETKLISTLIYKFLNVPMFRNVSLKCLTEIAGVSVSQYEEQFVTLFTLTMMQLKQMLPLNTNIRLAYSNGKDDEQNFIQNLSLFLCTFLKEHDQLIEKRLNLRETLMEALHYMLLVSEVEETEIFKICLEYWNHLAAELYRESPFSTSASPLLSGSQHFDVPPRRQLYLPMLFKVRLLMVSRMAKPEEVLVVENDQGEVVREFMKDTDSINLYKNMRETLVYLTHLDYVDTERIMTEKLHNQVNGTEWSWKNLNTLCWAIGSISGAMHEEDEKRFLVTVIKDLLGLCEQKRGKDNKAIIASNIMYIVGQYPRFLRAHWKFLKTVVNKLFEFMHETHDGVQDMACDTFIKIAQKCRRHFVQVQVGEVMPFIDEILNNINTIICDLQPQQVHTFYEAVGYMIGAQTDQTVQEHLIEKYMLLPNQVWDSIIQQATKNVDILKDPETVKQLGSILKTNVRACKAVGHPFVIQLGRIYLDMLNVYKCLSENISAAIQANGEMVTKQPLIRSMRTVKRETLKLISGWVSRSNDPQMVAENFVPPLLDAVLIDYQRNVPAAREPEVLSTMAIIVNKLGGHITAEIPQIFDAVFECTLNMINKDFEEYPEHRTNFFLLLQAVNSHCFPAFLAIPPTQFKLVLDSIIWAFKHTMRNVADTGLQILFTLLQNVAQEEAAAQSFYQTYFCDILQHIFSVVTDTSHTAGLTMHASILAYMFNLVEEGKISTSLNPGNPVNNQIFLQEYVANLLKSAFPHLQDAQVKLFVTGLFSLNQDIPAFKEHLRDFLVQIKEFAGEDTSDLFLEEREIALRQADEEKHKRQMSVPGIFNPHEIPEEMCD
Assay: XPO1 occupancy assay in cultured cell lines (biotinylated probe pull-down, Simple Western)
Type: cell-based
Set-up: Cells were collected, washed with PBS, and lysed with RIPA Buffer; endogenous in cells; host or cells: MM.1S
Settings: MM.1S cells; biotinylated SINE compound alone, direct binding; read-out: 50% Occupancy
pEC50: −log10 of the molar value.
Overview of reported pEC50 across a group of molecules:
QUANTITY KIND: pEC50

>  <CHEMICAL STRUCTURE>
O=C1N[C@H]2[C@H](CS[C@H]2CCCCC(=O)Oc2cc(-c3ncn(/C=C\C(=O)N4CC(F)(F)C4)n3)cc(C(F)(F)F)c2)N1

>  <RECORDED MEASUREMENT>
6.92

$$$$
>  <CHEMICAL STRUCTURE>
NC(=O)/C(=C/n1cnc(-c2cc(OC(=O)CCCC[C@@H]3SC[C@@H]4NC(=O)N[C@@H]43)cc(C(F)(F)F)c2)n1)c1cncnc1

>  <RECORDED MEASUREMENT>
6.74

$$$$

====

Tested on: nuclear export of the XPO1 cargo protein Rev-GFP in stably transfected U2OS cells
Test: Rev-GFP assay (nuclear retention of Rev-GFP)
Assay type: cell-based
Details: Homo sapiens, read-out: Rev-GFP IC50 (μM), U2OS Rev-GFP cells
Measured IC50, listed per entry.
QUANTITY KIND: IC50

>  <MOLECULE>
O=C(/C=C\n1cnc(-c2cc(C(F)(F)F)cc(C(F)(F)F)c2)n1)NNc1ccccn1 [Verdinexor, verdinexor]

>  <RECORDED MEASUREMENT>
0.01 µM

$$$$
>  <MOLECULE>
CC(C)(C)C(=O)NNC(=O)/C=C\n1cnc(-c2cc(C(F)(F)F)cc(C(F)(F)F)c2)n1 [KPT-350]

>  <RECORDED MEASUREMENT>
0.17 µM

$$$$
>  <MOLECULE>
O=C(/C=C\n1cnc(-c2cc(C(F)(F)F)cc(C(F)(F)F)c2)n1)NNc1cnccn1 [Selinexor, selinexor]

>  <RECORDED MEASUREMENT>
0.04 µM

$$$$
>  <MOLECULE>
NC(=O)/C(=C/n1cnc(-c2cc(C(F)(F)F)cc(C(F)(F)F)c2)n1)c1cncnc1 [KPT-8602]

>  <RECORDED MEASUREMENT>
0.04 µM

$$$$

====

System: nuclear export of the XPO1 cargo protein Rev-GFP in stably transfected U2OS cells
Assay: Rev-GFP assay (nuclear retention of Rev-GFP)
Assay type: cell-based
Conditions: Homo sapiens, read-out: RevGFP Assay IC50 (μM), Rev-GFP U2OS, selinexor 4 hours, 96 hours post washout

>  <COMPOUND>
O=C(/C=C\n1cnc(-c2cc(C(F)(F)F)cc(C(F)(F)F)c2)n1)NNc1cnccn1 [Selinexor, selinexor]

>  <IC50 [µM]>
11.4

$$$$

====

Avg 90% Occupancy (μM) for assorted molecules
Target: XPO1 (Homo sapiens, UniProt O14980)
Test: XPO1 occupancy assay in cultured cell lines (biotinylated probe pull-down, Simple Western)
Type: cell-based
Design: Cells were collected, washed with PBS, and lysed with RIPA Buffer; endogenous in cells; host or cells: MM.1S
Conditions: MM.1S cells; SINE compound 1 hour, then 1 nM b-LMB […]
QUANTITY KIND: Avg 90% Occupancy (μM)

>  <MOLECULE>
O=C(/C=C\n1cnc(-c2cc(C(F)(F)F)cc(C(F)(F)F)c2)n1)NNc1cnccn1 [Selinexor, selinexor]

>  <QUANTITY KIND>
Avg 90% Occupancy (μM)

>  <RECORDED MEASUREMENT>
0.52 +/− 0.05 (n = 2) μM

$$$$
>  <MOLECULE>
NC(=O)/C(=C/n1cnc(-c2cc(C(F)(F)F)cc(C(F)(F)F)c2)n1)c1cncnc1

>  <QUANTITY KIND>
Avg 90% Occupancy (μM)

>  <RECORDED MEASUREMENT>
1.1 +/− 1.03 (n = 2) μM

$$$$
>  <MOLECULE>
CC(C)(C)C(=O)NNC(=O)/C=C\n1cnc(-c2cc(C(F)(F)F)cc(C(F)(F)F)c2)n1

>  <QUANTITY KIND>
Avg 90% Occupancy (μM)

>  <RECORDED MEASUREMENT>
6.45 +/− 3.36 (n = 3) μM

$$$$
>  <MOLECULE>
O=C(/C=C\n1cnc(-c2cc(C(F)(F)F)cc(C(F)(F)F)c2)n1)NNc1ccccn1 [Verdinexor, verdinexor]

>  <QUANTITY KIND>
Avg 90% Occupancy (μM)

>  <RECORDED MEASUREMENT>
0.34 +/− 0.08 (n = 3) μM

$$$$

Recorded values, source paper PMC4811503.
